Value source: ChEMBL document CHEMBL5149985

compounds and their reported pIC50
Tested on: HeLa
procedure-text: Anticancer activity against human HeLa cells assessed as inhibition of cell growth
Format: functional, cell-based
Lab note — pIC50 values are minus log10 of concentrations in M.

> print(dat)
                                   compound  metric.name  observed.value
1      NC(=O)C[C@@]1(O)C=C(Cl)C(=O)C(Br)=C1        pIC50            7.75
2  O=C(O)C(=O)c1c(-c2c[nH]c3cc(O)ccc23)ncc2[nH]c3ccc(O)cc3c12        pIC50            7.59

Now, please, on to the next compound.
The compound C[C@H]1N[C@@H](C(=O)O)Cc2c1[nH]c1ccc(O)cc21 [HYRTIOERECTINE B] showed pIC50 equal to 7.70
